Overview of recorded Mean relative activity for various molecules
- Tested on: K562 CRISPRi cells
- Assay: Constant region variant library pooled growth screen, K562
- Type: cell-based, human
- Condition Info: sgRNA constant region variant; activity relative to unmodified constant region cr995; mean CRISPRi activity
Readout Type: Mean relative activity

{"columns": ["Molecule", "Experimental Result"],
 "data": [
  ["cr310 (nucleic acid, listed as DNA, chemistry not fully specified) guide: GTTTAAGAGCTAAGCTGGAAACAGCATAGCAAGTTTAAATTAGGCTAGTCCGTTATCAACTTGAATAAGTGGCACCGAGTCGGTGCT", 0.01363],
  ["cr174 (nucleic acid, listed as DNA, chemistry not fully specified) guide: GTTTAAGAGCTAAGCTGGAAACAGCATACCAAGTTTAAATAAGGCTAGGCCGTTATCAACTTGAAAAAGTGGCACCGATTCGGTGCT", 0.006669],
  ["cr247 (nucleic acid, listed as DNA, chemistry not fully specified) guide: GTTTAAGAGCTAAGCTGGAAACAGCATAGCAATTTTAAATAAGGCTAGTCCGTTATCAACTTGAAAAAGTAGCACCGAGTCGGTGCT", 0.007159],
  ["cr067 (nucleic acid, listed as DNA, chemistry not fully specified) guide: CTTGAAGAGCTAAGCTGGAAACAGCATAGCAAGTTTAAATAAGGCTAGTCCGTTATCAACTTGAAAAAGTGGCACCGAGTCGGTGCT", 0.01012]
]}

Source of measurements: patent US20220259593A1
